assay.target: KIR6.2-SUR1 (Homo sapiens, UniProt Q09428+Q14654)
Sequence (Q14654 whole entry): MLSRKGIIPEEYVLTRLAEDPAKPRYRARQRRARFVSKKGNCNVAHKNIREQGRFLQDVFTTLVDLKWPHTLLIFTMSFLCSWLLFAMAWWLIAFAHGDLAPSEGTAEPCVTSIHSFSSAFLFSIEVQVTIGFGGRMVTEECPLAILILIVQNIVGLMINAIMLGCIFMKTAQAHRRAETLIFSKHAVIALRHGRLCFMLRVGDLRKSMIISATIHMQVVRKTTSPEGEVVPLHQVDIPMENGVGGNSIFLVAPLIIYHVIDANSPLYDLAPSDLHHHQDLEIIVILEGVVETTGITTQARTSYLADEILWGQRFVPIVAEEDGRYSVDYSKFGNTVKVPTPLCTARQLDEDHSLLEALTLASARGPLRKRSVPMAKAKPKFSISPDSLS
Sequence (Q09428 whole entry): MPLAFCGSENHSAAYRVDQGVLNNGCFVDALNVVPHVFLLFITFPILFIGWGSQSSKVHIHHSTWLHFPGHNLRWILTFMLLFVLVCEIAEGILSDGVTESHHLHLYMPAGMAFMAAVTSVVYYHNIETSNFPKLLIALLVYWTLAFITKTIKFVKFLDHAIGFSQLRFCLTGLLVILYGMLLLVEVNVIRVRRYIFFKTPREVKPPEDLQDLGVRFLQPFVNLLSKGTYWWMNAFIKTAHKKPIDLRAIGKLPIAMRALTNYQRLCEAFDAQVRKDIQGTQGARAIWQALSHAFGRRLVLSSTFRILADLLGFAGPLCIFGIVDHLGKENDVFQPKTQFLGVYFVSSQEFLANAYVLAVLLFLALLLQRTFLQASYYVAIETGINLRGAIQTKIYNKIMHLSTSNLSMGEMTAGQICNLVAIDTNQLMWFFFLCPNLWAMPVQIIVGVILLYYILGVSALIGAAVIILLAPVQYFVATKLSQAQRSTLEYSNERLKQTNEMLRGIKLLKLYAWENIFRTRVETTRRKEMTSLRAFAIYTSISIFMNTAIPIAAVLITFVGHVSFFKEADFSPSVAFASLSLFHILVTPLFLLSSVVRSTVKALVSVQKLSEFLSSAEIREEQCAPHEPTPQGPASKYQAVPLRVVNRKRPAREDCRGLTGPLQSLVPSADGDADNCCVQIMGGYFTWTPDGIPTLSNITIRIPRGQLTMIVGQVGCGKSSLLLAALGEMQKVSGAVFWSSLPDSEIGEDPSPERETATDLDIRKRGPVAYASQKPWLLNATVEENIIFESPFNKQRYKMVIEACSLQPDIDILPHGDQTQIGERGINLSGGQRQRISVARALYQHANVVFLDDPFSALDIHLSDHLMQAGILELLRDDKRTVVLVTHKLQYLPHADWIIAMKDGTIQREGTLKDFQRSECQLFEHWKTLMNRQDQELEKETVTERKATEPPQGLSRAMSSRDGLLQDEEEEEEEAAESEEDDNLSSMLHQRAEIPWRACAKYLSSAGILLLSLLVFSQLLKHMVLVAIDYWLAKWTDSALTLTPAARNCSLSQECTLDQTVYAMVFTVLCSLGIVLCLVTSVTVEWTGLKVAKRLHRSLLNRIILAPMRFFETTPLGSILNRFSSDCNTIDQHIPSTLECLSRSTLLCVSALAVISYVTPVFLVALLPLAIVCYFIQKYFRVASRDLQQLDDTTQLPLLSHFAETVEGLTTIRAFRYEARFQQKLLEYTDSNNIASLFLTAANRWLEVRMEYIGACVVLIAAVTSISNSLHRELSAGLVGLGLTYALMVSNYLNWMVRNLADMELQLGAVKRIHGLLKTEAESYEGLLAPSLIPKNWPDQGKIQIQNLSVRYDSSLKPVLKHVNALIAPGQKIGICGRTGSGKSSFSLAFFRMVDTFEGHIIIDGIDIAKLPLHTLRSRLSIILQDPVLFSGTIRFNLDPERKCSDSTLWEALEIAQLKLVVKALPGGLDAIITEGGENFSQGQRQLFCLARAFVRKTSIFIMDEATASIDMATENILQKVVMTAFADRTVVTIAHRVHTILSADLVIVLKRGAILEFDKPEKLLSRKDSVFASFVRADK
measurement.protocol: Whole-cell current of recombinant KIR6.2-SUR1 in Hek293 cells
measurement.parameters: Hek293 cells KIR6.2-SUR1, whole-cell
parameter.measured: IC50 (µM)
The figure you give is taken to be in µM; do not add the unit.

q: # get_value(readout='IC50', item= `O=P(O)(O)C(O)(Cn1ccnc1)P(=O)(O)O` )
a: 21

---

assay.target: KIR6.2-SUR2A (Homo sapiens, UniProt O60706+Q14654)
Sequence (O60706 whole entry, one chain of several): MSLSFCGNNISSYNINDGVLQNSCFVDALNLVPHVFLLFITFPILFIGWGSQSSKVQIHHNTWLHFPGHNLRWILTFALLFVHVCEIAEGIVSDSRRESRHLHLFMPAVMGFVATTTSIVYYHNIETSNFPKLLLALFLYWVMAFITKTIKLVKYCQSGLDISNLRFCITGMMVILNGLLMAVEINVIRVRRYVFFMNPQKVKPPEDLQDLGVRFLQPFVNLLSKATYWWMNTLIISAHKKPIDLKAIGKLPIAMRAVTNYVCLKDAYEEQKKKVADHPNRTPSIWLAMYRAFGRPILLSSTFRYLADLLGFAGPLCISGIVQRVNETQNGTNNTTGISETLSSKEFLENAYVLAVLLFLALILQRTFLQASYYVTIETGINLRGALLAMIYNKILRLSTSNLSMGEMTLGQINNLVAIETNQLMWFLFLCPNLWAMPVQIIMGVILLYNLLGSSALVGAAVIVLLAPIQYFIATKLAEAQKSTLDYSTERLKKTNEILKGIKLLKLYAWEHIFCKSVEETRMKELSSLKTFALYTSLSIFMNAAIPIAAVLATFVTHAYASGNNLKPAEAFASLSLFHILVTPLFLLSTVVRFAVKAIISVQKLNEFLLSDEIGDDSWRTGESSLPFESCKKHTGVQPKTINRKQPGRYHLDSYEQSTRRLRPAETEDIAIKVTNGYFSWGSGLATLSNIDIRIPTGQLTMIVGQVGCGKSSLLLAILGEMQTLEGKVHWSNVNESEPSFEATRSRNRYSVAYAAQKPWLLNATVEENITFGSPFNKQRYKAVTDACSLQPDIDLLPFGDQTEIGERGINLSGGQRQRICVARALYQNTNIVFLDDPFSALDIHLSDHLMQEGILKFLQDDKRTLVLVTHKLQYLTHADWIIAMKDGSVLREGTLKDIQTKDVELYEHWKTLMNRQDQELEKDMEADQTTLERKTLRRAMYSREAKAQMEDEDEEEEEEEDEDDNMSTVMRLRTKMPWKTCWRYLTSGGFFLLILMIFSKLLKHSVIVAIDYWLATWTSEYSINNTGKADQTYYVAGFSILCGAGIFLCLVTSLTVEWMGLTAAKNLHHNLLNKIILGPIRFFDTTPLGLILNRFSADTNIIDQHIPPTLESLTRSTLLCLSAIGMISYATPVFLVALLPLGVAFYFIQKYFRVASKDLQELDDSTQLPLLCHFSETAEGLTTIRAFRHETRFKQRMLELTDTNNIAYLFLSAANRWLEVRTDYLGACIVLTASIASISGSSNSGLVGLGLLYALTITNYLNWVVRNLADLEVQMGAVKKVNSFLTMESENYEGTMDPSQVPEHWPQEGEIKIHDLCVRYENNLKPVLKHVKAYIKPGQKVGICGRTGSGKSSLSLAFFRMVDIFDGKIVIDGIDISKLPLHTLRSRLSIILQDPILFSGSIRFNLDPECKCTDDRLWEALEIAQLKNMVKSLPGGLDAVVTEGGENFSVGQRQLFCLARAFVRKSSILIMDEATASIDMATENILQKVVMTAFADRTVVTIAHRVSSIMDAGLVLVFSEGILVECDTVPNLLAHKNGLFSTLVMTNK
measurement.protocol: Whole-cell current of recombinant KIR6.2-SUR2A in Hek293 cells
parameter.measured: IC50 (µM)
The figure you give is taken to be in µM; do not add the unit.

q: Give KIR6.2-SUR2A (Homo sapiens, UniProt O60706+Q14654) IC50 for `O=P(O)(O)C(O)(Cn1ccnc1)P(=O)(O)O`
a: 7.1
